Values were extracted from patent US20220089727A1.

# Tested On: T1, CD47 on the surface of Jurkat cells (human, UniProt Q08722 19-323)
# T1 construct: whole, on cells; also called CD47 on jurkat cell surface; CD47 on cell surface
# Experiment Summary: flow cytometry on Jurkat cells, hybridoma supernatant, anti-mouse IgG Fc FITC
Each entry below lists one item and its recorded MFI value.

Binder | Output Unit | MFI
059-1.100.5 (antibody, mouse IgM, V domains shown, Mouse hybridoma antibody; light chain type kappa; also called 059-1.100.5 purified antibody) VH: QVQLQQSGAELVRPGASVTLSCKASGYTFTDYEMHWVKQTPVHGLEWIGAIDPETGGTAYNQNFKGKATLTADKSSSTAYMELRSLTSEDSAVYYCTRGTPYAMDYWGQGTSVTVSS VL: DVVMTQTPLSLPVSLGDQASISCRSSQSLVHSNGNTYLHWYLQKPGQSPKLLIYKVSNRFSGVPDRFSGSGSGTDFTLKISRVEAEDLGVYFCSQSTHVPWTFGGGTKLEIK | MFI | 216
059-1.20.1 (antibody, mouse IgG1, V domains shown, also called 059-1.20.1 purified antibody) VH: EVQLQQSGPELVKPGASVNMSCKASGYTFTNYFLHWVKQKPGQGLEWIGYINPYNDGTNYNENFKGKATLTSDKSSSTAYMELSSLTSEDSAVYYCAKGGWFSMDYWGQGTSVTVSS VL: DVVMTQTPLSLPVSLGDQASISCRSSQSLVHSNGKTYLQWYLQKPGQSPKLLIYKVSNRFSGVPDRFSGSGSGTDFTLKISRVEAEDLGVYFCSQSTHVYTFGGGTKLEIK | MFI | 15300
059-1.11.1 (antibody, mouse IgM, V domains shown, Mouse hybridoma antibody; the subclass paragraph gives the light chain type as kappa; also called 059-1.11.1 purified antibody) VH: QVQLQQSGAELVRPGASVTLSCKASGYTFTDYEMHWVKQTPVHGLEWIGAIDPETGGTAYNQKFKGKATLTADKSSSTAYMELRSLTSEDSAVYYCTRGTPYAMDYWGQGTSVTVSS VL: DVVMTQTPLSLPVSLGDQASISCRSSQSLVHSNGNTYLHWYLQKPGQSPKLLIYKVSNRFSGVPERFSGSGSGTDFTLKISRVEAEDLGVYFCSQSTHVPWTFGGGTKLEIK | MFI | 6630
059-1.30.1 (antibody, mouse IgG1, V domains shown, also called 059-1.30.1 purified antibody) VH: EVQLQQSGPELVKPGASVRMSCKASGYTFTNYVMHWVKQKPGQGLEWIGYINPYNDGTKYSEKFKGKATLTSDKSSITAYMELSSLTSEDSAVYYCAKGGLFTFDYWGQGTTLTVSS VL: DVVMTQTPLSLPVSLGDQASISCRSSQSLVHSKGNTYLHWYLQKPGQSPKLLIYRVSNRFSGVPDRFSGSGSGTDFTLKISRVEAEDLGVYFCSQSTHVPFTFGSGTKLEIK | MFI | 9950
